tested on: secretion of apolipoprotein B in cell strain HepG2 derived from hepatoma; assay: Inhibitory activity against secretion of apolipoprotein B (sandwich ELISA); type: cell-based; conditions: Homo sapiens; HepG2 cells, test compound at final concentration of 3 μM
Endpoint Label: inhibition at 3 µM (%)
Please state the figure in %; there is no need to write the unit.

// known answers, use as guide
[[record]]
smiles_notation = "CC(C)(C)OC(=O)N1CCN(c2ccc3c(c2)C(=O)N(C2CCCCC2)C3)CC1"
reported_measurement = 68

[[record]]
smiles_notation = "O=C1c2cc(N3CCN(CCC(c4ccccc4)c4ccccc4)CC3)ccc2CN1C1CCCCC1"
reported_measurement = 70

[[record]]
smiles_notation = "CC(C)=CCC/C(C)=C/CC/C(C)=C/CN1CCN(c2ccc3c(c2)C(=O)N(C2CCCCC2)C3)CC1"
reported_measurement = 56


Okay, now this compound:
Request: inhibition at 3 µM, test system secretion of apolipoprotein B in cell strain HepG2 derived from hepatoma, entry O=C1c2cc(N3CCN(CCC(c4ccccc4)c4ccccc4)CC3)ccc2CCN1C1CCCCC1
61
